# reported Activity; entries follow
Biological target: von Hippel-Lindau disease tumor suppressor/Serine/threonine-protein kinase PLK1 (Homo sapiens) (UniProt P53350+P40337)
Sequence (P40337 whole entry, looked up): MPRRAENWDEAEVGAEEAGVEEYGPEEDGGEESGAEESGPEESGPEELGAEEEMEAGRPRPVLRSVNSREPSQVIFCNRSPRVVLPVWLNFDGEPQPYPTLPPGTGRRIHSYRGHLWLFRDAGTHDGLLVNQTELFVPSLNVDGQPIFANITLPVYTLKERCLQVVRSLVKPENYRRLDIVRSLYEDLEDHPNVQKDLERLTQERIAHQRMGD
Sequence (P53350 whole entry, looked up): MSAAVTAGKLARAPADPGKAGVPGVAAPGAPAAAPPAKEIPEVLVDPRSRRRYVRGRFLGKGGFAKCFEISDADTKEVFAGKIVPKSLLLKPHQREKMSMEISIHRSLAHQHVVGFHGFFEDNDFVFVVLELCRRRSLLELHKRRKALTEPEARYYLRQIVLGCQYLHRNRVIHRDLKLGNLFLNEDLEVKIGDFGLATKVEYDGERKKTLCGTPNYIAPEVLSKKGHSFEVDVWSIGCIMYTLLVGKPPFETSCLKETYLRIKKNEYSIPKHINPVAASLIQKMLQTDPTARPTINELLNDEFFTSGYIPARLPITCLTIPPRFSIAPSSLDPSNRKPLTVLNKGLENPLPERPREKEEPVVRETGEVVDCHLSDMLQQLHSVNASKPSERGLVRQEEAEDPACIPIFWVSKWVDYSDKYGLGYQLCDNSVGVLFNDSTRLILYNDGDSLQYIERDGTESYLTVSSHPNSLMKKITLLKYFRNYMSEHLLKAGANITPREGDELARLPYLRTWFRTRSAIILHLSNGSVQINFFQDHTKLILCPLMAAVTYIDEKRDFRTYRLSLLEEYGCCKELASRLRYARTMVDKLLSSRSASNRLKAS
Test: Protac activity at VHL/PLK1 in human HeLa cells assessed as PLK1 degradation at 500 nM measured after 12 hrs by Western blot analysis
Assay type: cell-based
readout.label: Activity (%)

>  <chemical.smiles>
CC[C@@H]1C(=O)N(C)c2cnc(Nc3ccc(C(=O)NC4CCN(CCCCCCCCCC(=O)N[C@H](C(=O)N5C[C@H](O)C[C@H]5C(=O)NCc5ccc(-c6scnc6C)cc5)C(C)(C)C)CC4)cc3OC)nc2N1C1CCCC1

>  <readout.label>
Activity

>  <reported.measurement>
8

$$$$
>  <chemical.smiles>
CC[C@@H]1C(=O)N(C)c2cnc(Nc3ccc(C(=O)NC4CCN(CCCCCCCC(=O)N[C@H](C(=O)N5C[C@H](O)C[C@H]5C(=O)NCc5ccc(-c6scnc6C)cc5)C(C)(C)C)CC4)cc3OC)nc2N1C1CCCC1

>  <readout.label>
Activity

>  <reported.measurement>
6

$$$$
>  <chemical.smiles>
CC[C@@H]1C(=O)N(C)c2cnc(Nc3ccc(C(=O)NC4CCN(CCCCCC(=O)N[C@H](C(=O)N5C[C@H](O)C[C@H]5C(=O)NCc5ccc(-c6scnc6C)cc5)C(C)(C)C)CC4)cc3OC)nc2N1C1CCCC1

>  <readout.label>
Activity

>  <reported.measurement>
0.3

$$$$
>  <chemical.smiles>
CC[C@@H]1C(=O)N(C)c2cnc(Nc3ccc(C(=O)NC4CCN(CCCCCCC(=O)N[C@H](C(=O)N5C[C@H](O)C[C@H]5C(=O)NCc5ccc(-c6scnc6C)cc5)C(C)(C)C)CC4)cc3OC)nc2N1C1CCCC1

>  <readout.label>
Activity

>  <reported.measurement>
0

$$$$
